Entries and their max activity values follow.
# assayProtocol: viability loss in HEK293 cells – cell-based, plate reader, cherry-picked samples, cytotoxicity control, dose response (AID 743446)
# experimentalParameters: active compounds read low; at 26 µM unless noted
Potency and affinity values are given separately. Calls of active or inactive are those of the source. The rule behind the calls is not given here.

Use these answered entries as a reference point.
compound	max activity
O=C(O)c1nn(Cc2ccc(Cl)cc2Cl)c2ccccc12	19.3% [at 0.38 µM] (inactive)
O=Cc1cn(Cc2cccc([N+](=O)[O-])c2)c2ccccc12	-15.2% [at 12 µM] (inactive)

# input // fetch max activity given entry CC(C)(C)n1cc(C(=O)c2ccc3ccccc3c2O)cn1
# output -8.13% (inactive)

# input // fetch max activity given entry CNC(=O)Oc1cccc(-c2cn3cc(Cl)ccc3n2)c1
# output 27.7% [at 0.38 µM] (inactive)

# input // fetch max activity given entry COC(=O)c1ccc(NC(=O)CSc2nc3ccc(N4C(=O)C5C6C=CC(C6)C5C4=O)cc3s2)cc1 (stereo not given)
# output -25.2% (inactive)
